- Test system: HS5 cells
- Assay Comment: In vitro cytotoxic study on hamster cells converted by the virus of the hamster sarcoma, clone HS5 (Table XVI)
- Assay type: cell-based
- Experimental Setup: Mesocricetus auratus, read-out: Minimal dose leading to a complete inhibition of the growth
Recorded IC (100 (complete growth inhibition, minimal)), one value per entry.
Recorded Metric: IC (100 (complete growth inhibition, minimal)) (µM)

[
  {
    "Structure": "COc1ccc2[nH]c3c(C)c4ccnc(NCCCN(C)C)c4cc3c2c1",
    "Value Modifier": "=",
    "Recorded Value": 2
  },
  {
    "Structure": "COc1ccc2[nH]c3c(C)c4ccnc(NCCCCCCN)c4cc3c2c1",
    "Value Modifier": "=",
    "Recorded Value": 2
  },
  {
    "Structure": "COc1ccc2[nH]c3c(C)c4ccnc(NCCN)c4cc3c2c1",
    "Value Modifier": "=",
    "Recorded Value": 1
  },
  {
    "Structure": "CCN(CC)CCCNc1nccc2c(C)c3[nH]c4ccc(OC)cc4c3cc12",
    "Value Modifier": "=",
    "Recorded Value": 5
  },
  {
    "Structure": "COc1ccc2[nH]c3c(C)c4ccnc(NCCCCCN)c4cc3c2c1",
    "Value Modifier": "=",
    "Recorded Value": 2
  },
  {
    "Structure": "COc1ccc2[nH]c3c(C)c4ccnc(NCCCN)c4cc3c2c1",
    "Value Modifier": "=",
    "Recorded Value": 2
  },
  {
    "Structure": "COc1ccc2[nH]c3c(C)c4ccnc(NCCCCN)c4cc3c2c1",
    "Value Modifier": "=",
    "Recorded Value": 2
  },
  {
    "Structure": "COc1ccc2[nH]c3c(C)c4ccnc(N5CCCCC5)c4cc3c2c1",
    "Value Modifier": ">",
    "Recorded Value": 5
  },
  {
    "Structure": "COc1ccc2[nH]c3c(C)c4ccnc(NCCN(C)C)c4cc3c2c1",
    "Value Modifier": "=",
    "Recorded Value": 2
  }
]

The origin of these recorded values is patent US4434290A.
